Experiment: 384-well plate pilot, post-Golgi transport modulator project, inhibition of yeast transport mutant growth (AID 636); further: test concentration not given here
Details: absorbance 615 nm, about 18 h, stronger effect = higher value
reported-metric: inhibition (%)
Give bare numbers, in %.

Answered cases to consult:
CCOc1ccc(C(c2nnnn2Cc2ccccc2)N2CCN(C(=O)c3ccco3)CC2)cc1 (stereo not drawn) | 0.53
Cc1nnc(SCC(=O)NCCN2C(=O)CSC2=O)s1 | -3.24
CCc1[nH]nc2c1C(c1ccncc1)C(C#N)=C(N)O2 (stereo not drawn) | -4.46

Field: inhibition. Fill in for each record below.
1. O=c1cc(COn2nnc3ccc(C(F)(F)F)cc32)nc2sccn12
2. Cc1ccccc1NC(=O)C1CCN(c2cnccn2)CC1
3. CCOc1cc(NC(=O)c2ccco2)c(OCC)cc1NC(=O)Cc1cccc(OC)c1
4. CCn1c(=O)n(CC(=O)NCc2ccccc2OC)c(=O)c2ccccc21
5. CCOc1ccc(C(=O)N2CCC(C(=O)c3ccc4c(c3)OCCO4)CC2)cc1
6. CC1Cc2nc(SCC(=O)Nc3ccccc3F)n(C)c(=O)c2S1 (stereo not drawn)
7. CCn1c(=O)cc(SCC(=O)NCCN2CCN(Cc3ccccc3)CC2)c2ccccc21

## Result
-1.71
-7.07
0.68
0.92
-4.61
-7.95
-4.47

The reported numbers originate from PubChem BioAssay.
